B1: LINE1-mini (parent)
chain: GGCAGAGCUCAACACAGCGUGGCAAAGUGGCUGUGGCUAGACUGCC

Variants of: B1
METHOD_NOTES: self-cleavage, relative activity (ratio to wild type); higher = more cleavage; in vitro, sequencing; the parent is a self-cleaving ribozyme
self-cleavage vs 0.2: at or above is Y, below is N.

Here's what some known entries look like.
C3G U34C    N
G21A A26G    Y
A11G U34A    N

Confirm if self-cleavage reported for the variant A25U G40U is 0.2 or above.
N

Confirm if self-cleavage reported for the variant G1C C23A is 0.2 or above.
N

Confirm if self-cleavage reported for the variant G36C G40U is 0.2 or above.
N
